Experiment: Volume of distribution in human at 10 to 1200 mg and measured up to 360 hrs by LC-MS/MS method
Type: ADME
Conditions: in vivo
measure_name: Vd

Ask | What value of Vd has been recorded for this entry: CC1(C)c2nc(-c3ccc(F)cc3)c(Nc3ccc(F)cc3)n2CCN1C(=O)CN [GANAPLACIDE]
Reply | 1610 to 2410 L

---

Experiment: Half life in dog
Assay type: ADME, Canis lupus familiaris
Settings: in vivo
measure_name: half-life
Answer with the number, then the unit.

Ask | What value of half-life has been recorded for this entry: CS(=O)(=O)c1ccc(-c2cnc(N)c(-c3ccc(C(F)(F)F)nc3)c2)cc1
Reply | 58 h
